Test: Clearance in rat hepatocytes assessed per million cells
Format: ADME, cell-based, Hepatocyte

line_notation: O=C(c1nn(-c2ccccc2Cl)c(-c2ccc(Cl)cc2)c1Cc1nn[nH]n1)N1CCC(Oc2cc(F)cc(F)c2)CC1
CLH (µL/min/1e6 cells): 16
--
line_notation: O=C(O)Cc1c(C(=O)N2CCC(Oc3cccc(C(F)(F)F)c3)CC2)nn(-c2ccccc2Cl)c1-c1ccc(Cl)cc1
CLH (µL/min/1e6 cells): 35
--
line_notation: O=C(c1nn(-c2ccccc2Cl)c(-c2ccc(Cl)cc2)c1Cc1nn[nH]n1)N1CCC(Oc2ccc(F)cc2)CC1
CLH (µL/min/1e6 cells): 13
--
line_notation: O=C(O)Cc1c(C(=O)N2CCC(Oc3ccc(C(F)(F)F)cc3)CC2)nn(-c2ccccc2Cl)c1-c1ccc(Cl)cc1
CLH (µL/min/1e6 cells): 17
--
line_notation: O=C(O)Cc1c(C(=O)N2CCC(Oc3ccc(Cl)cc3)CC2)nn(-c2ccccc2Cl)c1-c1ccc(Cl)cc1
CLH (µL/min/1e6 cells): 7
--
line_notation: O=C(O)Cc1c(C(=O)N2CCC(Oc3cccc(Cl)c3)CC2)nn(-c2ccccc2Cl)c1-c1ccc(Cl)cc1
CLH (µL/min/1e6 cells): 32
--
line_notation: NC(=O)Cc1c(C(=O)N2CCC(O)(c3ccc(F)cc3)CC2)nn(-c2ccccc2Cl)c1-c1ccc(Cl)cc1
CLH (µL/min/1e6 cells): 8
--
line_notation: C[C@@H](NC(=O)c1nn(-c2ccccc2Cl)c(-c2ccc(Cl)cc2)c1CC(N)=O)c1ccc(C(F)(F)F)nc1
CLH (µL/min/1e6 cells): 6
--
line_notation: O=C(c1nn(-c2ccccc2Cl)c(-c2ccc(Cl)cc2)c1Cc1nn[nH]n1)N1CCC(Oc2cccc(F)c2)CC1
CLH (µL/min/1e6 cells): 45
--
line_notation: CC(=O)N1CCC(NC(=O)c2nn(-c3ccccc3Cl)c(-c3ccc(Cl)cc3)c2CC(N)=O)CC1
CLH (µL/min/1e6 cells): 4
--
line_notation: O=C(c1nn(-c2ccccc2Cl)c(-c2ccc(Cl)cc2)c1Cc1nn[nH]n1)N1CCC(Oc2ccc(C(F)(F)F)cc2)CC1
CLH (µL/min/1e6 cells): 12
--
line_notation: CC(C)S(=O)(=O)N1CCC(NC(=O)c2nn(-c3ccccc3Cl)c(-c3ccc(Cl)cc3)c2CC(N)=O)CC1
CLH (µL/min/1e6 cells): 17
--
line_notation: C[C@@H]1C[C@](O)(c2cccc(F)c2)CCN1C(=O)c1nn(-c2ccccc2Cl)c(-c2ccc(Cl)cc2)c1CC(N)=O
CLH (µL/min/1e6 cells): 24

---

Below, each of the compounds is paired with its reported chromatographic logD value.
Experiment: Lipophilicity, logD of compound by chromatographic analysis
Type: physicochemical
readout_label: chromatographic logD

compound: N=C(N)Cc1c(C(=O)Nc2ccc(F)cc2)nn(-c2ccccc2Cl)c1-c1ccc(Cl)cc1
reported: 2.5

compound: C[C@@H]1CC(O)(c2cccc(F)c2)C[C@H](C)N1C(=O)c1nn(-c2ccccc2Cl)c(-c2ccc(Cl)cc2)c1CC(N)=O (stereo partly specified)
reported: 3.5

compound: O=C(c1nn(-c2ccccc2Cl)c(-c2ccc(Cl)cc2)c1Cc1nn[nH]n1)N1CCC(c2ccccc2F)CC1
reported: 2.5

compound: O=C(c1nn(-c2ccccc2Cl)c(-c2ccc(Cl)cc2)c1Cc1nn[nH]n1)N1CCC(Oc2ccc(Cl)cc2)CC1
reported: 2.6

compound: O=C(O)Cc1c(C(=O)N2CCC(Oc3ccc(F)c(F)c3)CC2)nn(-c2ccccc2Cl)c1-c1ccc(Cl)cc1
reported: 2.9

compound: C[C@@H]1C[C@](O)(c2cccc(F)c2)CCN1C(=O)c1nn(-c2ccccc2Cl)c(-c2ccc(Cl)cc2)c1CC(N)=O
reported: 3
